Literature IC50 values, system: UniProt:P06730.

# annotated cases, reported IC50 shown
{"columns": ["Compound", "IC50"],
 "data": [
  ["O=C(NCc1ccc(F)cc1)c1ccc(-c2ccc(-c3nc(-c4ccc(Cl)c(Cl)c4)cs3)cc2C(=O)O)cc1", "1500 nM"],
  ["O=C(O)C1CCN(c2nc(-c3ccc(-c4cnco4)cc3)c(-c3cncnc3)s2)C1 (stereo not drawn)", "> 25000 nM"],
  ["COc1ccc(-c2nc(Nc3ncc(-c4cccs4)nc3C(=O)O)sc2CC(C)C)cc1F", "≤ 500 nM"],
  ["Cc1nc(N2CCCC(C(=O)O)C2)sc1-c1ccc(-c2ccc(F)cc2)cc1 (stereo not drawn)", "5000 to 25000 nM"],
  ["O=C(O)C1CC(CNc2nc(-c3ccc(Oc4ccccc4)cc3)c(-c3cccc4[nH]ccc34)s2)C1 (stereo not drawn)", "5000 to 25000 nM"]
]}

Asked: Quick one: IC50 for CC(CNc1nc(-c2ccc(-c3cnco3)cc2)c(-c2cncnc2)s1)C(=O)O (stereo not drawn) ?
Given back: > 25000 nM

Asked: Repeat for the following compound: COCCOc1cccc(-c2nc(Nc3ncc(-c4cccs4)cc3C(=O)OC)sc2CC(C)C)c1
Given back: > 1000 nM

Asked: Repeat for the following compound: CC(C)Cc1sc(Nc2ncc(-c3cccs3)cc2C(=O)O)nc1-c1ccc2c(c1)OCO2
Given back: ≤ 500 nM

Asked: Repeat for the following compound: COCCOc1ccc(-c2nc(Nc3cnc(-c4cccs4)cc3C(=O)O)sc2Cc2ccccc2)cc1F
Given back: ≤ 500 nM

Asked: Repeat for the following compound: COc1ccc(-c2nc(Nc3ncc(-c4cccs4)nc3C(=O)O)sc2CCC(C)C)cc1F
Given back: ≤ 500 nM

Asked: Repeat for the following compound: CC(C)Cc1sc(Nc2ncc(-c3cccs3)cc2C(=O)O)nc1-c1ccc2c(c1)OC(C)(C)O2
Given back: ≤ 500 nM

Asked: Repeat for the following compound: O=C(O)c1cc(-c2nc(-c3ccc(Cl)c(Cl)c3)cs2)ccc1-c1cc(C(F)(F)F)ccc1Cl
Given back: 1100 nM

Asked: Repeat for the following compound: O=C(O)C1CN(c2nc(-c3ccc(-c4cnco4)cc3)c(-c3cncnc3)s2)CCO1 (stereo not drawn)
Given back: > 25000 nM

Asked: Repeat for the following compound: O=C(O)C1CN(c2nc(-c3ccc(-c4ccc(F)cc4)cc3)c(-c3cncnc3)s2)CCO1 (stereo not drawn)
Given back: > 25000 nM

====

Literature IC50 values, system: human eIF4E protein (Homo sapiens, UniProt P06730).

# annotated cases, reported IC50 shown
{"columns": ["Compound", "Study system", "Meas value"],
 "data": [
  ["O=C(O)C1CCCN(c2nc(-c3ccc(Oc4ccccc4)cc3)c(-c3cccnc3)s2)C1 (centres unmarked)", "human eIF4E protein (Homo sapiens, UniProt P06730)", "> 25 µM"],
  ["COCCOc1ccc(-c2nc(Nc3ncc(-c4ccco4)cc3C(=O)O)sc2CC(C)C)cc1F", "human eIF4E protein (Homo sapiens, UniProt P06730)", "0.5 to 1 µM"],
  ["CC1(C(=O)O)CN(c2nc(-c3ccc(Oc4ccccc4)cc3)c(-c3cccnc3)s2)C1", "human eIF4E protein (Homo sapiens, UniProt P06730)", "> 25 µM"],
  ["CC1(C(=O)O)CN(c2nc(-c3ccc(-c4ccc(F)cc4)cc3)c(-c3cccc4[nH]ccc34)s2)C1", "human eIF4E protein (Homo sapiens, UniProt P06730)", "5 to 25 µM"]
]}

Asked: Quick one: IC50 for COCCOc1ccc(-c2nc(Nc3ncc(-c4cc(C)cs4)cc3C(=O)O)sc2C2CCCC2)cc1 ?
Given back: 0.5 to 1 µM

Asked: Repeat for the following compound: CC(C)Cc1sc(Nc2ncc(-c3cccs3)cc2C(=O)O)nc1-c1ccsc1
Given back: ≤ 0.5 µM

Asked: Repeat for the following compound: Cc1ccc(C=O)c(-c2ccc(-c3nc(-c4ccc(Cl)c(Cl)c4)cs3)cc2C(=O)O)c1
Given back: 5.1 µM

Asked: Repeat for the following compound: N#Cc1ccc(Cl)c(-c2ccc(-c3nc(-c4ccc(Cl)c(Cl)c4)cs3)cc2C(=O)O)c1
Given back: 3.5 µM

Asked: Repeat for the following compound: CCCC(CNc1nc(-c2ccc(-c3ccc(F)cc3)cc2)c(-c2cncnc2)s1)C(=O)O (centres unmarked)
Given back: > 25 µM

Asked: Repeat for the following compound: COCCCOc1ccc(-c2nc(Nc3ncc(-c4cccs4)cc3C(=O)O)sc2CC(C)C)cc1Cl
Given back: ≤ 0.5 µM

Asked: Repeat for the following compound: CC(C)C(CC(=O)O)Nc1nc(-c2ccc(-c3ccc(F)cc3)cc2)c(-c2ccccc2)s1 (centres unmarked)
Given back: < 5 µM
